Target: PI3Kβ (Homo sapiens)
Sequence (P42338 whole entry, species assumed): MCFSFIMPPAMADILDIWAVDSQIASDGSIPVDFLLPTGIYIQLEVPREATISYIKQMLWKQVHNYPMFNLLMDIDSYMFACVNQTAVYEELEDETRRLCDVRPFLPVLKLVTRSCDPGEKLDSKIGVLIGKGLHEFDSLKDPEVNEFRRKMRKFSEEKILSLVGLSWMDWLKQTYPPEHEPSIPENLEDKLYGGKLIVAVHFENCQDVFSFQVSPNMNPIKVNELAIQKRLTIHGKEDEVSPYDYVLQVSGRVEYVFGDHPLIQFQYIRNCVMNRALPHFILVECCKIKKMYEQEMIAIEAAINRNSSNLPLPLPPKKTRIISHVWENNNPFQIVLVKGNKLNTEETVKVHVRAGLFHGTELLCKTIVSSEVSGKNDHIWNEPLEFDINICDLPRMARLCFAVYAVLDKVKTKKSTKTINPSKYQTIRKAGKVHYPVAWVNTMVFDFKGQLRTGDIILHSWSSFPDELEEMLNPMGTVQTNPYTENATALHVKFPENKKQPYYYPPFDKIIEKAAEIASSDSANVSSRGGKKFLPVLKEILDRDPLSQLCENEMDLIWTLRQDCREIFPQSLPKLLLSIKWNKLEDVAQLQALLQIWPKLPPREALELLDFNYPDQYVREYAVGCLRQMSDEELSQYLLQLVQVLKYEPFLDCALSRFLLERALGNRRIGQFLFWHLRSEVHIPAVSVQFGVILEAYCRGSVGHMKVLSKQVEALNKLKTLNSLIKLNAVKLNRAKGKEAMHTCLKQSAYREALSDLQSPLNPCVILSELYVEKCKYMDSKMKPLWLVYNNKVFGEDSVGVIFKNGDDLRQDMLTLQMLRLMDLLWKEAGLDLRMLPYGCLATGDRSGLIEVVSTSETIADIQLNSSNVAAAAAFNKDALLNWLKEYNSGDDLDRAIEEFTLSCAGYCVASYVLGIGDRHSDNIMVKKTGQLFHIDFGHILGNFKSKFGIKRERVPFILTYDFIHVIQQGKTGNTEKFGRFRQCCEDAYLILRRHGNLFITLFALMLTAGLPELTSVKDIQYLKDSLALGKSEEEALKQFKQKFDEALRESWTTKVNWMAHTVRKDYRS
Sequence (P27986 whole entry partner, species assumed): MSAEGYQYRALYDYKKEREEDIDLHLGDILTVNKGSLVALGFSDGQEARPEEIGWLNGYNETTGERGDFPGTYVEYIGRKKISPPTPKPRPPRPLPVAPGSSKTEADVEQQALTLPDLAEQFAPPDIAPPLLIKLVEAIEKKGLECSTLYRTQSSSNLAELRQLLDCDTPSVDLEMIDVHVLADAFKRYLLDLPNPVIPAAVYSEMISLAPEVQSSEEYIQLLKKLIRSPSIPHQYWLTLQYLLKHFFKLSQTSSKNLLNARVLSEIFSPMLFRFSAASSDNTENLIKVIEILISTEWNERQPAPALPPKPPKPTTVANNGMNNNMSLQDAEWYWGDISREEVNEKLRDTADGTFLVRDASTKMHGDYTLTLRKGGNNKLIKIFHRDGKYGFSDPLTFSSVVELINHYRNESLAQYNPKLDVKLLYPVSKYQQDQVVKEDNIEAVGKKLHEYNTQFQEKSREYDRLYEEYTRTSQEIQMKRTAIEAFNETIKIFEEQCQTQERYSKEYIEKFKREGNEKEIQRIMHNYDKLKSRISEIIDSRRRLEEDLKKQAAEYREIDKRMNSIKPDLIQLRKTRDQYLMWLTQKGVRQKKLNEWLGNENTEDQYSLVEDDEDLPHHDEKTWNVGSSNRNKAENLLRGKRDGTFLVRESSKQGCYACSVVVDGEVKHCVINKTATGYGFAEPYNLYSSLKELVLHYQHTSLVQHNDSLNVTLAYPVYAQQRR
Experiment: PI3K HTRF assay, PI3K-beta; note: 400 µM ATP
Type: biochemical
Conditions: read-out: pIC50 PI3Kβ (converted)
recorded_metric: IC50 (µM)

Examples with their reported IC50 follow.
>  <item_smiles>
COc1ncc(-c2cc(-c3ncc(CN4CCN(C(C)C)CC4)o3)c3cn[nH]c3c2)cc1C(=O)O

>  <IC50, µM>
20

$$$$
>  <item_smiles>
COc1ncc(-c2cc(-c3ncc(CN4CCN(C(C)C)CC4)o3)c3cn[nH]c3c2)cc1C(=O)Oc1ccc(F)cc1

>  <IC50, µM>
5.01

$$$$
>  <item_smiles>
COc1ncc(-c2cc(-c3ncc(CN4CCN(C(C)C)CC4)o3)c3cn[nH]c3c2)cc1C(=O)Oc1ccccc1C(F)(F)F

>  <IC50, µM>
2

$$$$
>  <item_smiles>
COc1ccc(OC(=O)c2cc(-c3cc(-c4ncc(CN5CCN(C(C)C)CC5)o4)c4cn[nH]c4c3)cnc2OC)cc1

>  <IC50, µM>
12.6

$$$$

1 = COc1ncc(-c2cc(-c3ncc(CN4CCN(C(C)C)CC4)o3)c3cn[nH]c3c2)cc1C(=O)Oc1ccc([N+](=O)[O-])cc1
2 = COc1ncc(-c2cc(-c3ncc(CN4CCN(C(C)C)CC4)o3)c3cn[nH]c3c2)cc1C(=O)Oc1ccccc1
3 = COc1ncc(-c2cc(-c3ncc(CN4CCN(C(C)C)CC4)o3)c3cn[nH]c3c2)cc1C(=O)Oc1ccccc1[N+](=O)[O-]
4 = COc1ncc(-c2cc(-c3ncc(CN4CCN(C(C)C)CC4)o3)c3cn[nH]c3c2)cc1C(=O)Oc1ccc(C)cc1C
5 = COc1ncc(-c2cc(-c3ncc(CN4CCN(C(C)C)CC4)o3)c3cn[nH]c3c2)cc1C(=O)Oc1ccc(C(F)(F)F)cc1
Provide the items ranked by increasing IC50. Reply with the item labels sorted in the order that was asked for.
1, 3, 2, 5, 4

====

Target: PI3Kγ (Homo sapiens, UniProt P48736)
Sequence (P48736 whole entry, species assumed): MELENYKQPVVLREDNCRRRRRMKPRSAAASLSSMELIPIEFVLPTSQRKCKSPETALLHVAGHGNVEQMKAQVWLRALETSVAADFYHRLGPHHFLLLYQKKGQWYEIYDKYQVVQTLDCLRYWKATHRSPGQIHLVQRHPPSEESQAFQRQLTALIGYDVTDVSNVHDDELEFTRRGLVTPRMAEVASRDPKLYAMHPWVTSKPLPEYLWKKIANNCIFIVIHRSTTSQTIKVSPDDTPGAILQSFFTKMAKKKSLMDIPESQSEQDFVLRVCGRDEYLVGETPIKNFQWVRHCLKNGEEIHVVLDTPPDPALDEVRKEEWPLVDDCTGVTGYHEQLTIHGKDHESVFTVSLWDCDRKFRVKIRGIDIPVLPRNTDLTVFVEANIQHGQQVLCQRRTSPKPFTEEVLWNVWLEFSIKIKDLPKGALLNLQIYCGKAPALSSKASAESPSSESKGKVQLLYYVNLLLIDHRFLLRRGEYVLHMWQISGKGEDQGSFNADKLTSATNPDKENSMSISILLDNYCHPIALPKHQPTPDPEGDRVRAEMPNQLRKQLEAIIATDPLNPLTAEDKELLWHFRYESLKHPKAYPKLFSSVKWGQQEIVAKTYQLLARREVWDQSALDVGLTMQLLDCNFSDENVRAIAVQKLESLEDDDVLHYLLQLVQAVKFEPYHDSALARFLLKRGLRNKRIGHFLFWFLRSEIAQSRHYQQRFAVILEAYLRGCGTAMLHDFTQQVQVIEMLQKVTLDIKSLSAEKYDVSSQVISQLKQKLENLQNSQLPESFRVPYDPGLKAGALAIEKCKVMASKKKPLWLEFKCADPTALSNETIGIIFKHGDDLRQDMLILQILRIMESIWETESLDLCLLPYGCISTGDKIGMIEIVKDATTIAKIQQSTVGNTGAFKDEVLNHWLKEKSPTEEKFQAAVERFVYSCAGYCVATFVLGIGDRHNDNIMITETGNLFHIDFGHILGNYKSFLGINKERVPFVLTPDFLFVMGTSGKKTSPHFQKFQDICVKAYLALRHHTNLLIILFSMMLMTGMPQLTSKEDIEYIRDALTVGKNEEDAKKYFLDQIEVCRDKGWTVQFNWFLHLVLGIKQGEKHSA
Test: PI3K HTRF assay, PI3K-gamma; note: 15 µM ATP
Assay type: biochemical
Details: read-out: pIC50 PI3Kγ (converted)
recorded_metric: IC50 (µM)

1 = COc1ncc(-c2cc(-c3ncc(CN4CCN(C(C)C)CC4)o3)c3cn[nH]c3c2)cc1C(=O)O [Example 2]
2 = COc1ccc(OC(=O)c2cc(-c3cc(-c4ncc(CN5CCN(C(C)C)CC5)o4)c4cn[nH]c4c3)cnc2OC)cc1 [Example 10]
3 = COc1ncc(-c2cc(-c3ncc(CN4CCN(C(C)C)CC4)o3)c3cn[nH]c3c2)cc1C(=O)Oc1ccccc1[N+](=O)[O-] [Example 3]
Order the above compounds by increasing IC50. Answer by listing the labels in the order asked for.
3, 2, 1

====

Target: PI3Kγ (Homo sapiens, UniProt P48736)
Assay: PI3K HTRF assay, PI3K-gamma; note: 15 µM ATP
Format: biochemical
Conditions: read-out: pIC50 PI3Kγ (converted)
Experimental: The binding of compounds to PI3K-alpha/beta/delta/gamma is determined by homogeneous time resolved fluorescence (HTRF) assays as follows; Briefly, solid compound is dissolved in 100% DMSO at a concentration of 2 mM. […] Plates are read on a PerkinElmer Envision, measuring TR-FRET between the complex formed between the GST-tagged PH domain and biotinylated PIP3 which both recruit fluorophores (Europium-labelled anti-GST & Strep-APC respectively). […]
recorded_metric: IC50 (µM)

Consider the reported IC50 for these compounds:
>  <compound>
COc1ncc(-c2cc(-c3ncc(CN4CCN(C(C)C)CC4)o3)c3cn[nH]c3c2)cc1C(=O)Oc1ccccc1 [Example 8]

>  <IC50 (µM)>
12.6

$$$$
>  <compound>
COc1ncc(-c2cc(-c3ncc(CN4CCN(C(C)C)CC4)o3)c3cn[nH]c3c2)cc1C(=O)OCC(F)(F)F [Example 11]

>  <IC50 (µM)>
20

$$$$
>  <compound>
COc1ncc(-c2cc(-c3ncc(CN4CCN(C(C)C)CC4)o3)c3cn[nH]c3c2)cc1C(=O)Oc1ccc([N+](=O)[O-])cc1 [Example 4]

>  <IC50 (µM)>
1.58

$$$$
>  <compound>
COc1ncc(-c2cc(-c3ncc(CN4CCN(C(C)C)CC4)o3)c3cn[nH]c3c2)cc1C(=O)Oc1ccc(C(F)(F)F)cc1 [Example 6]

>  <IC50 (µM)>
25.1

$$$$
>  <compound>
COc1ncc(-c2cc(-c3ncc(CN4CCN(C(C)C)CC4)o3)c3cn[nH]c3c2)cc1C(=O)Oc1ccc(C)cc1C [Example 9]

>  <IC50 (µM)>
10

$$$$

a = COc1ncc(-c2cc(-c3ncc(CN4CCN(C(C)C)CC4)o3)c3cn[nH]c3c2)cc1C(=O)Oc1ccccc1C(F)(F)F [Example 5]
b = COc1ncc(-c2cc(-c3ncc(CN4CCN(C(C)C)CC4)o3)c3cn[nH]c3c2)cc1C(=O)Oc1ccc(F)cc1 [Example 7]
Identify the entry with the smaller IC50: a or b . Answer with the label corresponding to your selection.
a
(a: 7.94 µM, b: 15.8 µM)
